Biological target: SARS-CoV-2 3CLpro (Severe acute respiratory syndrome coronavirus 2)
Experiment: biochemical
Assay type: biochemical
Conditions: 4 h, sheet LOPAC_screen_w_protease; primary screen at 5 µM; mean of two replicates; read-out: mean (LOPAC screen with protease)
Structures can show the parent of a compound that is named as a salt.
# label = True if inhibition at 5 µM >= 10% else False

Form field: inhibition at 5 µM at least 10%? Entry: C[N+](C)(C)CC#CCN1CCCC1=O [Oxotremorine methiodide]
False

Form field: inhibition at 5 µM at least 10%? Entry: COC(=O)C1=C(C)NC(C)=C(C(=O)OC)C1c1ccccc1[N+](=O)[O-] [Nifedipine]
True

Form field: inhibition at 5 µM at least 10%? Entry: O=C(/C=C/c1ccc(O)c(O)c1)OCCc1ccccc1 [Caffeic acid phenethyl ester, reference compound]
True

Form field: inhibition at 5 µM at least 10%? Entry: Cn1cc(C2=C(c3ccc(Cl)cc3Cl)C(=O)NC2=O)c2ccccc21 [SB 216763]
False

Form field: inhibition at 5 µM at least 10%? Entry: NCCSSCCN [Cystamine dihydrochloride]
True

Form field: inhibition at 5 µM at least 10%? Entry: N#C/C(=C\c1ccc(O)c(O)c1)C(N)=S [Tyrphostin 47, reference compound]
True

Form field: inhibition at 5 µM at least 10%? Entry: CCOC(=O)c1cnc2c(cnn2CC)c1NN=C(C)C [Etazolate hydrochloride]
False

Form field: inhibition at 5 µM at least 10%? Entry: N#CC(C#N)=Cc1cc(O)c(O)c(O)c1 [Tyrphostin 25]
False

Form field: inhibition at 5 µM at least 10%? Entry: N=C1Sc2ccccc2C2=NCCCN12 [PD 404,182, reference compound]
True

Form field: inhibition at 5 µM at least 10%? Entry: CCOC(=O)[C@]12CC1/C(=N\O)c1ccccc1O2 (mixture of isomers) [CPCCOEt, reference compound]
True

Form field: inhibition at 5 µM at least 10%? Entry: COc1ccc2c(c[n+](C)c3c4cc5c(cc4ccc23)OCO5)c1OC [Chelerythrine chloride]
True

Form field: inhibition at 5 µM at least 10%? Entry: NC[C@@H]1O[C@H](O[C@H]2[C@@H](O)[C@H](O[C@@H]3[C@@H](O)[C@H](N)C[C@H](N)[C@H]3O[C@H]3O[C@H](CO)[C@@H](O)[C@H](O)[C@H]3N)O[C@@H]2CO)[C@H](N)[C@@H](O)[C@@H]1O [Paromomycin sulfate]
False

Form field: inhibition at 5 µM at least 10%? Entry: CCOC(=O)Nc1ccc(NCc2ccc(F)cc2)nc1N [Flupirtine maleate]
True

Form field: inhibition at 5 µM at least 10%? Entry: Clc1ccc(C(c2ccc(Cl)cc2)n2cc[n+](CC(OCc3ccc(Cl)cc3Cl)c3ccc(Cl)cc3Cl)c2)cc1 (stereo not shown) [Calmidazolium chloride]
False

Form field: inhibition at 5 µM at least 10%? Entry: CC[N+](CC)(CC)CCOc1cccc(OCC[N+](CC)(CC)CC)c1OCC[N+](CC)(CC)CC [Gallamine triethiodide]
True

Form field: inhibition at 5 µM at least 10%? Entry: Oc1cc(O)cc(/C=C/c2ccc(O)c(O)c2)c1 [Piceatannol, reference compound]
True

----------
Give inhibition at 5 µM for every item shown.
Target: SARS-CoV-2 3CLpro (Severe acute respiratory syndrome coronavirus 2, UniProt P0DTD1)
Experiment: biochemical
Assay type: biochemical
Settings: 4 h, sheet LOPAC_screen_w_protease; primary screen with protease, 5 µM; replicate 1; read-out: Replicate_1
Where a name gives a salt, the structure may show the parent alone.
Lab book: enter the figure in %, no units written.

Identify measured inhibition at 5 µM corresponding to C[C@@H]1O[C@@H]1P(=O)(O)O [Phosphomycin disodium]
-0.0304

Identify measured inhibition at 5 µM corresponding to `O=C(O)c1nn(Cc2ccc(Cl)cc2Cl)c2ccccc12`
0.572

Identify measured inhibition at 5 µM corresponding to S=C(NC1CCCCC1)N1CCC(c2cnc[nH]2)CC1 [Thioperamide maleate]
-0.586

Identify measured inhibition at 5 µM corresponding to `Nc1ccncc1`
0.392

----------
Target: SARS-CoV-2 3CLpro (Severe acute respiratory syndrome coronavirus 2)
Test: biochemical
Assay type: biochemical
Conditions: 4 h, read-out: Replicate_1 (LOPAC_screen_w_protease)
Structures can show the parent of a compound that is named as a salt. Peptide text beside a SMILES is read from it. * marks the point of attachment. Cbz = O=C(OCc1ccccc1)*
Give inhibition at 5 µM for every item shown.
Lab book: enter the figure in %, no units written.

Identify measured inhibition at 5 µM corresponding to CN(C)CCC=C1c2ccccc2C=Cc2ccccc21 [Cyclobenzaprine hydrochloride]
3.03

Identify measured inhibition at 5 µM corresponding to CNC(=C[N+](=O)[O-])NCCSCc1ccc(CN(C)C)o1 [Ranitidine hydrochloride]
2.07

Identify measured inhibition at 5 µM corresponding to CCN1C[C@]2(C)CC[C@H](O)[C@]34C1[C@@H](C[C@H]23)[C@@]1(O)C[C@H](OC)[C@H]2C[C@@H]4[C@@H]1[C@H]2O [Karakoline]
1.52

Identify measured inhibition at 5 µM corresponding to C=C(C)[C@H]1CN[C@H](C(=O)O)[C@H]1CC(=O)O [Kainic acid]
1.88

Identify measured inhibition at 5 µM corresponding to NC(=O)N1c2ccccc2C=Cc2ccccc21 [Carbamazepine]
1.4

Identify measured inhibition at 5 µM corresponding to CNCCCN1c2ccccc2CCc2ccccc21 [Desipramine hydrochloride]
1.71

Identify measured inhibition at 5 µM corresponding to CC[C@H](CO)Nc1nc(NCc2ccccc2)c2ncn(C(C)C)c2n1 [Roscovitine]
3.12

Identify measured inhibition at 5 µM corresponding to O=c1c(-c2ccc(O)cc2)coc2cc(O)cc(O)c12 [Genistein]
2.15

Identify measured inhibition at 5 µM corresponding to CC(C)(C)c1cc(C=C(C#N)C#N)cc(C(C)(C)C)c1O [Tyrphostin A9]
2.73

Identify measured inhibition at 5 µM corresponding to CC(C)[C@H](NC(=O)OCc1ccccc1)C(=O)N[C@H](C=O)Cc1ccccc1 [MDL 28170] (Cbz-Val-Phe-aldehyde)
0.281

----------
Biological target: SARS-CoV-2 3CLpro (Severe acute respiratory syndrome coronavirus 2, UniProt P0DTD1)
Assay: biochemical
Format: biochemical
Conditions: sheet LOPAC_screen_w_protease; primary screen at 5 µM; mean of two replicates
Give mean (LOPAC screen with protease) for every item shown.
A bare number is all that is needed in reply.

Identify measured mean (LOPAC screen with protease) corresponding to CC(Cc1ccc(O)c(O)c1)C(C)Cc1ccc(O)c(O)c1 (centres unmarked)
97.9088

Identify measured mean (LOPAC screen with protease) corresponding to C[C@@H]1OC[C@H](C[N+](C)(C)C)O1.[I-] [(+)-cis-Dioxolane iodide]
7.2322

Identify measured mean (LOPAC screen with protease) corresponding to `Br.CCCN1CCc2cc(O)cc3c2[C@H]1Cc1ccc(O)c(O)c1-3`
94.9167

Identify measured mean (LOPAC screen with protease) corresponding to Br.Cc1cccc(C2CN(C)CCc3c2cc(O)c(O)c3Cl)c1 (centres unmarked) [SKF 83959 hydrobromide]
8.7281

Identify measured mean (LOPAC screen with protease) corresponding to C=CCN1CC[C@]23c4c5ccc(O)c4O[C@@H]2/C(=N/N=C2\CC[C@@]4(O)C6Cc7ccc(O)c8c7[C@@]4(CCN6CC=C)[C@@H]2O8)CC[C@@]3(O)C1C5.Cl.Cl [Naloxonazine dihydrochloride]
7.252

Identify measured mean (LOPAC screen with protease) corresponding to O=C(O)c1cc[c]([Hg][Cl])cc1 [4-Chloromercuribenzoic acid, reference compound]
103.38

Identify measured mean (LOPAC screen with protease) corresponding to `N[C@@H](Cn1cc(I)c(=O)[nH]c1=O)C(=O)O`
6.582

Identify measured mean (LOPAC screen with protease) corresponding to CN1CC[C@@]2(C)c3cc(O)ccc3N(C)[C@@H]12.O=C(O)/C=C/C(=O)O [(-)-Eseroline fumarate]
88.3904

Identify measured mean (LOPAC screen with protease) corresponding to O=Nc1ccc2oc(=O)ccc2c1 [6-Nitroso-1,2-benzopyrone, reference compound]
91.133

Identify measured mean (LOPAC screen with protease) corresponding to O=C1c2c(O)cc(O)cc2O[C@H](c2ccc(O)c(O)c2)[C@H]1O (racemic) [(±)-Taxifolin]
7.529

Identify measured mean (LOPAC screen with protease) corresponding to Br.CN=c1nc(-c2ccccc2)n(-c2ccccc2)s1 [SCH-202676 hydrobromide]
100.647

Identify measured mean (LOPAC screen with protease) corresponding to Nc1ccc2c3c(cccc13)C(=O)NC2=O [4-Amino-1,8-naphthalimide]
6.555

Identify measured mean (LOPAC screen with protease) corresponding to CC(C)N(CCC(=O)c1ccc2ccccc2c1)Cc1ccccc1.Cl [ZM 39923 hydrochloride]
93.4745

Identify measured mean (LOPAC screen with protease) corresponding to Cl.Cl.Oc1ccc2c3c1O[C@H]1c4[nH]c5c(c4C[C@@]4(O)[C@@H](C2)N(CC2CC2)CC[C@]314)C[C@@]1(O)[C@H]2Cc3ccc(O)c4c3[C@@]1(CCN2CC1CC1)[C@H]5O4 [nor-Binaltorphimine dihydrochloride]
34.0021

Identify measured mean (LOPAC screen with protease) corresponding to `Br.CN1CCc2cc(O)cc3c2[C@H]1Cc1ccc(O)c(O)c1-3`
100.809

Identify measured mean (LOPAC screen with protease) corresponding to Cc1cccc(C)c1OCC(N)C(C)C.I (stereo not drawn) [R(-)-Me5]
9.695

Identify measured mean (LOPAC screen with protease) corresponding to Br.Oc1ccc(C2CNCc3sccc32)cc1O (centres unmarked) [SKF 89626, reference compound]
42.8167

Identify measured mean (LOPAC screen with protease) corresponding to CC1(NCC(O)COc2cccc3[nH]ccc23)CCC(C(C)(C)NC(=O)CBr)CC1 (racemic) [(±)-Pindobind, reference compound]
33.6627

Identify measured mean (LOPAC screen with protease) corresponding to CC1CNCCN1S(=O)(=O)c1cccc2cnccc12.Cl.Cl (centres unmarked)
12.1111

Identify measured mean (LOPAC screen with protease) corresponding to Br.NC1CCc2cc(O)c(O)cc2C1 (centres unmarked) [6,7-ADTN hydrobromide]
64.0916

Identify measured mean (LOPAC screen with protease) corresponding to `Cc1cc(N)c2ccccc2[n+]1CCCCCCCCCCCCCC[n+]1c(C)cc(N)c2ccccc21.[I-].[I-]`
11.1281

Identify measured mean (LOPAC screen with protease) corresponding to Br.C=CCN1CCc2cccc3c2[C@H]1Cc1ccc(O)c(O)c1-3 [R(-)-N-Allylnorapomorphine hydrobromide]
97.2039

Identify measured mean (LOPAC screen with protease) corresponding to CC(N)(Cc1ccc(O)c(O)c1)C(=O)O (racemic)
6.44

Identify measured mean (LOPAC screen with protease) corresponding to Cc1c(OCC(F)(F)F)ccnc1C[S+]([O-])c1nc2ccccc2[nH]1 (centres unmarked) [Lansoprazole, reference compound]
41.5106

Identify measured mean (LOPAC screen with protease) corresponding to COc1ccccc1N1CCN(CCN(C(=O)c2ccc(F)cc2)c2ccccn2)CC1.Cl.Cl [p-MPPF dihydrochloride]
7.242

Identify measured mean (LOPAC screen with protease) corresponding to N.S=C(S)N1CCCC1 [Ammonium pyrrolidinedithiocarbamate]
72.0091

Identify measured mean (LOPAC screen with protease) corresponding to Br.C=CCN1CCc2c(cc(O)c(O)c2Br)[C@@H](c2ccccc2)C1 [R(+)-6-Bromo-APB hydrobromide]
28.8024

Identify measured mean (LOPAC screen with protease) corresponding to `S=C(Nc1ccccc1)Nc1nccs1`
7.407

Identify measured mean (LOPAC screen with protease) corresponding to C[Se]C[C@H](N)C(=O)O.Cl [Se-(methyl)selenocysteine hydrochloride]
12.3582

Identify measured mean (LOPAC screen with protease) corresponding to NC(Cc1cc(O)c(O)cc1O)C(=O)O (racemic) [6-Hydroxy-dl-DOPA, reference compound]
66.3118

Identify measured mean (LOPAC screen with protease) corresponding to Br.CN1CCc2c(cc(O)c(O)c2Cl)C(c2cccc(Cl)c2)C1 (centres unmarked) [SKF 83565 hydrobromide]
22.1474

Identify measured mean (LOPAC screen with protease) corresponding to C[C@@](Cc1ccc(O)c(O)c1)(NN)C(=O)O [S-(-)-Carbidopa]
17.4897
